Each recorded value in this set is attributed to the SangsterLogP compilation.

observed_property: logP

{"molecule": "CCOC(=O)NC1=NCC(c2cccc(Cl)c2)N1C (centres undefined)", "observed_property": "logP", "result_value": 2.45}
{"molecule": "Cc1cc2n(c1C(=O)c1ccccc1)CCC2C(=O)O (centres undefined)", "observed_property": "logP", "result_value": 2.85}
{"molecule": "COC(=O)NC1=NCC(c2ccccc2C)N1C (centres undefined)", "observed_property": "logP", "result_value": 1.85}
{"molecule": "CCOC(=O)NC1=NCC(c2cccc(C)c2C)N1C (centres undefined)", "observed_property": "logP", "result_value": 2.57}

---

observed_property: logP

Consider the reported logP for these compounds:
{"compound": "COC(=O)NC1=NCC(c2cccc(F)c2)N1 (stereo not drawn)", "logP": 1.41}
{"compound": "NCCCCCCCCOc1cccc2ccccc12", "logP": 3.14}
{"compound": "CN(C)CCCOc1cccc2ccccc12", "logP": 1.99}
{"compound": "CCOC(=O)NC1=NCC(c2ccccc2Cl)N1C (stereo not drawn)", "logP": 2.4}
{"compound": "CCOC(=O)NC1=NCC(c2ccc(F)cc2)N1C (stereo not drawn)", "logP": 1.9}

I = COC(=O)NC1=NCC(c2ccc3c(c2)OCO3)N1 (stereo not drawn)
II = COC(=O)NC1=NCC(c2cccc(C)c2)N1C (stereo not drawn)
[ask] Return label of the item with the larger logP. Candidates: I , II . Provide the label of your selected option as the answer.
[reply] II
(II: 1.85, I: 1.21)
